Attribution: the emibetuzumab library of Makowski et al. (2022)

B1: VH:VL chains; a variant is named by its letters at X, in order (parent)
chain 1: QVQLVQSGAEVKKPGASVKVSCKASGYTFTDYXMHWVRQAPGQGLEWMGXVNPNXXXTTYNQKFEGRVTMTTDTSTSTAYMELRSLRSDDTAVYYCARXNXLDXWGQGTTVTVSS
chain 2: DIQMTQSPSSLSASVGDRVTITCSVSSSVSSIYLHWYQQKPGKAPKLLIYSTSNLASGVPSRFSGSGSGTDFTLTISSLQPEDFATYYCQVYSGYPLTFGGGTKVEIK

Variants of: B1
ASSAY REMARKS: yeast display scFab, FACS + sequencing
CONDITION LABEL: with MET
Some of the results follow. The true hit rate is not given.
QUANTITY: antigen binding call

Solved cases (10 shown):
{"RESIDUE CHANGE": "AKATADVD", "QUANTITY": "antigen binding call", "VALUE MEASURED": "no binding"}
{"RESIDUE CHANGE": "YTGGDDVV", "QUANTITY": "antigen binding call", "VALUE MEASURED": "no binding"}
{"RESIDUE CHANGE": "FRGESSWD", "QUANTITY": "antigen binding call", "VALUE MEASURED": "binds"}
{"RESIDUE CHANGE": "VRRRGSAF", "QUANTITY": "antigen binding call", "VALUE MEASURED": "binds"}
{"RESIDUE CHANGE": "YRRGDDGD", "QUANTITY": "antigen binding call", "VALUE MEASURED": "binds"}
{"RESIDUE CHANGE": "YERRSSAF", "QUANTITY": "antigen binding call", "VALUE MEASURED": "binds"}
{"RESIDUE CHANGE": "VTTRASGD", "QUANTITY": "antigen binding call", "VALUE MEASURED": "no binding"}
{"RESIDUE CHANGE": "YRGRDDGD", "QUANTITY": "antigen binding call", "VALUE MEASURED": "binds"}
{"RESIDUE CHANGE": "VTTRAAVS", "QUANTITY": "antigen binding call", "VALUE MEASURED": "no binding"}
{"RESIDUE CHANGE": "YRTRSAAV", "QUANTITY": "antigen binding call", "VALUE MEASURED": "binds"}

[ask] # input variant: DRAGDDGD ; wanted: its antigen binding call
[reply] no binding

[ask] # input variant: VRAGDYLV ; wanted: its antigen binding call
[reply] no binding

[ask] # input variant: DRAGDYLV ; wanted: its antigen binding call
[reply] binds

[ask] # input variant: YKGEDDVY ; wanted: its antigen binding call
[reply] no binding

[ask] # input variant: FTETGFGA ; wanted: its antigen binding call
[reply] no binding
